target: SARS-CoV-2 spike protein, B1.351 (beta variant), borne on lentiviral pseudovirus (SARS-CoV-2, B1.351); test: cell-based or functional assay
endpointLabel: Pseudo Neut, B1.351 IC50 (pM)
Numbers only, in pM.

| binder | unitAbbrev | Pseudo Neut, B1.351 IC50 (pM) |
| --- | --- | --- |
| antibody 4042 (antibody, V domains shown) VH: QITLKESGPTLVKPTQTLTLTCTFSGFSLSSGGVGVGWIRQPPGKALEWLALIYWDDDKRYRPSLKSRLTITRDTSTNQVVLTMTNMDPVDTATYFCARHQIATVFDHWGQGTLVTVSS VL: QSALTQPASVSGSPGQSITISCTGTSSDVGGYNYVSWYQQHPGKAPKLMIYEVSNRPSGVSSRFSGSKSGNTASLTISGLQAEDEADYYCSSYTRSSPLVAFGGGTKVTVL | pM | 948 |

Would you mind giving Pseudo Neut, B1.351 IC50 (pM) for every binder in the list below?
1. antibody 1814 (antibody, V domains shown) VH: QVQLQESGPGLVKPSETLSLTCSVSGGSINYYYWSWIRQTPGQGLEWIGFIYSSGTTNYNPSLKSRVTMSKDTAKKQFSLKLTSVTAADSAVYYCARHSRSCTNGVCQTYYYYALDVWGHGTTVTVSS VL: QSVLTQPPSVSGAPGQRVTISCTGSGSNIGSGYDVHWYQQLPGRAPKLLIYRNRNRPSGVPDRFSGSKSGTSASLAIAGLQSEDEGDYFCQSYDGRLGESAVFGGGTRLTVL
2. antibody 1872 (antibody, V domains shown) VH: EVQLVESGGGLVKPGGSLRLSCAASGFSFSLYTMNWVRQAPGKGLEWVSYISSSSSYRYYADSVKGRFSVSRDNAKNALYLQMNGLRAEDTAVYYCARDGYCPRGVCTYYGMDVWGQGTTVTVSA VL: EIVMTQSPATLSVSPGERATLSCRASQSVGSRLAWYQQKPGQAPRLLIYDATIRATGIPARFSGSGSGTDFTLTISGLQSEDFAVYYCQRYNNWPPAYTFGQGTKLEIK

Marked response:
[32, 75]
